assay: Half life in Sprague-Dawley rat at 5 mg/kg, po or 0.5 mg/kg, iv measured up to 24 hrs by HPLC-MS/MS analysis; assay type: ADME, organism-based; conditions: in vivo
Positions of bridges follow the written chain, without caps; N, C: chain ends. Non-standard residues stand in square brackets, D forms with d. Residues, ends and D or L forms follow the SMILES beside them. NMeF = CN[C@@H](Cc1ccccc1)C(=O)O; NMeNle = CCCC[C@H](NC)C(=O)O; Nle = CCCC[C@H](N)C(=O)O
readout: half-life (min)

Some molecules with known half-life results, for comparison:
CCCC[C@@H]1NC(=O)[C@H](Cc2ccccc2)N(C)C(=O)CSC[C@H](C(=O)NC)N(C)C(=O)[C@H](CCCC)NC(=O)[C@H](CCCC)N(C)C(=O)[C@H](CCCC)NC1=O | 54
CCCC[C@@H]1NC(=O)[C@H](Cc2ccccc2)N(C)C(=O)CSC[C@H](C(=O)NC)N(C)C(=O)[C@H](CCCC)NC(=O)[C@H](CCCC)N(C)C(=O)C2CCCN2C1=O (stereo not given in full) | 18
CCCC[C@@H]1NC(=O)[C@H](Cc2ccccc2)N(C)C(=O)[C@@H]2CCCN2C(=O)[C@H](CCCC)N(C)C(=O)[C@H](Cc2ccccc2)NC(=O)CSC[C@@H](C(=O)NC)NC(=O)[C@H](CCCC)N(C)C1=O ({CH2CO}-F[NMeNle]P[NMeF][Nle][NMeNle]C-NHMe; thioether N-7) | 90

a: CCCC[C@@H]1NC(=O)[C@H](Cc2ccccc2)NC(=O)CSC[C@H](C(=O)NC)NC(=O)[C@H](CCCC)N(C)C(=O)[C@H](CCCC)NC(=O)[C@H](CCCC)N(C)C1=O
b: CCCC[C@@H]1NC(=O)[C@H](CCCC)NC(=O)[C@H]2CCCN2C(=O)[C@H](CCCC)NC(=O)[C@H](Cc2ccccc2)NC(=O)CSC[C@H](C(=O)NC)NC(=O)[C@H](CCCC)NC1=O
Q: Input pair: a , b . Output: entry with lower half-life. Label of pick, please.
Ans: b

* * *

microsomal CLint reference
test: Clearance in Sprague-Dawley rat liver microsomes measured up to 30 mins in presence of NADPH by HPLC-MS/MS analysis; format: ADME, Microsome; details: read-out: CLH
Positions of bridges follow the written chain, without caps; N, C: chain ends. Non-standard residues stand in square brackets, D forms with d. Residues, ends and D or L forms follow the SMILES beside them. NMeNle = CCCC[C@H](NC)C(=O)O; Nle = CCCC[C@H](N)C(=O)O

Q: Name the recorded microsomal CLint for CCCC[C@@H]1NC(=O)C2CCCN2C(=O)[C@H](CCCC)NC(=O)[C@H](Cc2ccccc2)NC(=O)CSC[C@H](C(=O)NC)NC(=O)[C@H](CCCC)NC1=O (stereo not given in full) .
Ans: ≥ 350 µL/min/mg

Q: What does the record list as microsomal CLint for `CCCC[C@@H]1NC(=O)[C@H](CCCC)N(C)C(=O)[C@H](CCCC)NC(=O)[C@H](CCCC)N(C)C(=O)[C@@H](Cc2ccccc2)NC(=O)CSC[C@H](C(=O)NC)NC1=O` ?
Ans: ≥ 350 µL/min/mg

Q: Can you share its microsomal CLint? I mean this compound: CCCC[C@@H]1NC(=O)[C@H](CCCC)NC(=O)[C@H](CCCC)N(C)C(=O)[C@@H]2CCCN2C(=O)[C@H](CCCC)N(C)C(=O)[C@H](Cc2ccccc2)NC(=O)CSC[C@@H](C(=O)NC)NC1=O ({CH2CO}-F[NMeNle]P[NMeNle][Nle][Nle]C-NHMe; thioether N-7)
Ans: ≥ 480 µL/min/mg

Q: Quick check: microsomal CLint of `CCCC[C@@H]1NC(=O)[C@H](CCCC)N(C)C(=O)[C@H](CCCC)NC(=O)[C@H](Cc2ccccc2)N(C)C(=O)[C@H]([C@@H](C)O)NC(=O)[C@H](CCCC)N(C)C(=O)[C@@H](Cc2ccccc2)NC(=O)CSC[C@@H](C(=O)NC)NC1=O` ?
Ans: ≥ 120 µL/min/mg

Q: Which microsomal CLint reading was recorded for the compound `CCCC[C@@H]1NC(=O)[C@H](Cc2ccccc2)NC(=O)CSC[C@H](C(=O)NC)NC(=O)[C@H](CCCC)NC(=O)[C@H](CCCC)NC(=O)[C@H](CCCC)NC1=O` ?
Ans: ≥ 350 µL/min/mg

* * *

assay: 1-Octanol/phosphate buffered-saline distribution coefficient, logD of compound at pH 7.4 measured after 4 hrs by LC-MS analysis; type: physicochemical
Positions of bridges follow the written chain, without caps; N, C: chain ends. Non-standard residues stand in square brackets, D forms with d. Residues, ends and D or L forms follow the SMILES beside them. NMeF = CN[C@@H](Cc1ccccc1)C(=O)O; NMeNle = CCCC[C@H](NC)C(=O)O; Nle = CCCC[C@H](N)C(=O)O
readout: logD at 4 h

Example entries and their recorded answers appear below.
CCCC[C@@H]1NC(=O)[C@H](CCCC)NC(=O)[C@H]2CCCN2C(=O)[C@H](CCCC)NC(=O)[C@H](Cc2ccccc2)NC(=O)CSC[C@H](C(=O)NC)NC(=O)[C@H](CCCC)NC1=O | 3.7
CCCC[C@@H]1NC(=O)[C@H](Cc2ccccc2)N(C)C(=O)[C@@H]2CCCN2C(=O)[C@H](CCCC)N(C)C(=O)[C@H](Cc2ccccc2)NC(=O)CSC[C@@H](C(=O)NC)NC(=O)[C@H](CCCC)N(C)C1=O ({CH2CO}-F[NMeNle]P[NMeF][Nle][NMeNle]C-NHMe; thioether N-7) | 4.9

P: CCCC[C@@H]1NC(=O)[C@H](CCCC)NC(=O)[C@H](CCCC)N(C)C(=O)[C@@H]2CCCN2C(=O)[C@H](CCCC)N(C)C(=O)[C@H](Cc2ccccc2)NC(=O)CSC[C@@H](C(=O)NC)NC1=O ({CH2CO}-F[NMeNle]P[NMeNle][Nle][Nle]C-NHMe; thioether N-7)
Q: CCCC[C@@H]1NC(=O)C2CCCN2C(=O)[C@H](CCCC)NC(=O)[C@H](Cc2ccccc2)NC(=O)CSC[C@H](C(=O)NC)NC(=O)[C@H](CCCC)NC1=O (some centres undefined)
Q: Of the two listed items, which has the higher logD at 4 h? First: P Second: Q Write the label of whichever entry you select.
Ans: P

* * *

experiment: Volume of distribution at steady state in Sprague-Dawley rat at 5 mg/kg, po or 0.5 mg/kg, iv measured up to 24 hrs by HPLC-MS/MS analysis; format: ADME, organism-based; details: in vivo, read-out: Vdss
Positions of bridges follow the written chain, without caps; N, C: chain ends. Non-standard residues stand in square brackets, D forms with d. Residues, ends and D or L forms follow the SMILES beside them. NMeF = CN[C@@H](Cc1ccccc1)C(=O)O; NMeNle = CCCC[C@H](NC)C(=O)O; Nle = CCCC[C@H](N)C(=O)O
readout: Vd (L/kg)

Answered examples (4):
CCCC[C@@H]1NC(=O)[C@H](CCCC)N(C)C(=O)[C@@H]2CCCN2C(=O)[C@H](CCCC)N(C)C(=O)[C@H](Cc2ccccc2)NC(=O)CSC[C@@H](C(=O)NC)NC(=O)[C@H](CCCC)N(C)C1=O ({CH2CO}-F[NMeNle]P[NMeNle][Nle][NMeNle]C-NHMe; thioether N-7) | 1.2
CCCC[C@@H]1NC(=O)[C@H](Cc2ccccc2)N(C)C(=O)CSC[C@H](C(=O)NC)N(C)C(=O)[C@H](CCCC)NC(=O)[C@H](CCCC)N(C)C(=O)[C@H](CCCC)NC1=O | 2.1
CCCC[C@@H]1NC(=O)[C@H](Cc2ccccc2)NC(=O)CSC[C@H](C(=O)NC)NC(=O)[C@H](CCCC)N(C)C(=O)[C@H](CCCC)NC(=O)[C@H](CCCC)N(C)C1=O | 1
CCCC[C@@H]1NC(=O)[C@H](Cc2ccccc2)N(C)C(=O)[C@@H]2CCCN2C(=O)[C@H](CCCC)N(C)C(=O)[C@H](Cc2ccccc2)NC(=O)CSC[C@@H](C(=O)NC)NC(=O)[C@H](CCCC)N(C)C1=O ({CH2CO}-F[NMeNle]P[NMeF][Nle][NMeNle]C-NHMe; thioether N-7) | 1.1

I: CCCC[C@@H]1NC(=O)[C@H](Cc2ccccc2)N(C)C(=O)CSC[C@H](C(=O)NC)N(C)C(=O)[C@H](CCCC)NC(=O)[C@H](CCCC)N(C)C(=O)C2CCCN2C1=O (stereo partly drawn)
II: CCCC[C@@H]1NC(=O)C2CCCN2C(=O)[C@H](CCCC)NC(=O)[C@H](Cc2ccccc2)NC(=O)CSC[C@H](C(=O)NC)NC(=O)[C@H](CCCC)NC1=O (stereo partly drawn)
III: CCCC[C@@H]1NC(=O)[C@H](CCCC)NC(=O)[C@H]2CCCN2C(=O)[C@H](CCCC)NC(=O)[C@H](Cc2ccccc2)NC(=O)CSC[C@H](C(=O)NC)NC(=O)[C@H](CCCC)NC1=O
IV: CCCC[C@@H]1NC(=O)[C@H](CCCC)NC(=O)[C@H](CCCC)N(C)C(=O)[C@@H]2CCCN2C(=O)[C@H](CCCC)N(C)C(=O)[C@H](Cc2ccccc2)NC(=O)CSC[C@@H](C(=O)NC)NC1=O ({CH2CO}-F[NMeNle]P[NMeNle][Nle][Nle]C-NHMe; thioether N-7)
Q: Sequence the entries by Vd, beginning with the highest number. Answer by listing the labels in the order asked for.
Ans: IV, II, I, III
